Each entry below lists one item and its recorded response value.
Biological target: T1, CCL22 labeled with Alexa Fluor 647, O00626
T1 chain: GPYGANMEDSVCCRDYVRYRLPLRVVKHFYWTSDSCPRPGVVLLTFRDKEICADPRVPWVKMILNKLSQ
Assay: flow cytometry on cells
Conditions: chain shown with the change;; parent: est. 47; read off a plot
# number only, unit MFI dropped from output

These solved cases illustrate the format of a correct answer.
HA-ACKR2 (epitope-tagged human ACKR2, wild type), O00590 YYYDY to FFFDF (all four tyrosines of the motif to F) (protein) MAATASPQPLATEDADSENSSFFFFDFLDEVAFMLCRKDAVVSFGKVFLPVFYSLIFVLGLSGNLLLLMVLLRYVPRRRMVEIYLLNLAISNLLFLVTLPFWGISVAWHWVFGSFLCKMVSTLYTINFYSGIFFISCMSLDKYLEIVHAQPYHRLRTRAKSLLLATIVWAVSLAVSIPDMVFVQTHENPKGVWNCHADFGGHGTIWKLFLRFQQNLLGFLLPLLAMIFFYSRIGCVLVRLRPAGQGRALKIAAALVVAFFVLWFPYNLTLFLHTLLDLQVFGNCEVSQHLDYALQVTESIAFLHCCFSPILYAFSSHRFRQYLKAFLAAVLGWHLAPGTAQASLSSCSESSILTAQEEMTGMNDLGERQSENYPNKEDVGNKSA	7.5
HA-ACKR2 (epitope-tagged human ACKR2, wild type), O00590 YYYDY to YFFDF (second, third and fourth tyrosines of the motif to F) (protein) MAATASPQPLATEDADSENSSFYFFDFLDEVAFMLCRKDAVVSFGKVFLPVFYSLIFVLGLSGNLLLLMVLLRYVPRRRMVEIYLLNLAISNLLFLVTLPFWGISVAWHWVFGSFLCKMVSTLYTINFYSGIFFISCMSLDKYLEIVHAQPYHRLRTRAKSLLLATIVWAVSLAVSIPDMVFVQTHENPKGVWNCHADFGGHGTIWKLFLRFQQNLLGFLLPLLAMIFFYSRIGCVLVRLRPAGQGRALKIAAALVVAFFVLWFPYNLTLFLHTLLDLQVFGNCEVSQHLDYALQVTESIAFLHCCFSPILYAFSSHRFRQYLKAFLAAVLGWHLAPGTAQASLSSCSESSILTAQEEMTGMNDLGERQSENYPNKEDVGNKSA	22

Report response for HA-ACKR2 (epitope-tagged human ACKR2, wild type), O00590 YYYDY to FFFDY (first, second and third tyrosines of the motif to F) (protein) MAATASPQPLATEDADSENSSFFFFDYLDEVAFMLCRKDAVVSFGKVFLPVFYSLIFVLGLSGNLLLLMVLLRYVPRRRMVEIYLLNLAISNLLFLVTLPFWGISVAWHWVFGSFLCKMVSTLYTINFYSGIFFISCMSLDKYLEIVHAQPYHRLRTRAKSLLLATIVWAVSLAVSIPDMVFVQTHENPKGVWNCHADFGGHGTIWKLFLRFQQNLLGFLLPLLAMIFFYSRIGCVLVRLRPAGQGRALKIAAALVVAFFVLWFPYNLTLFLHTLLDLQVFGNCEVSQHLDYALQVTESIAFLHCCFSPILYAFSSHRFRQYLKAFLAAVLGWHLAPGTAQASLSSCSESSILTAQEEMTGMNDLGERQSENYPNKEDVGNKSA please. 24
